molecular target: Alpha-2B adrenergic receptor (Homo sapiens); assay: Agonist activity at human alpha2b-AR expressed in CHO cells assessed as rate of acidification after 240 mins by cytosensor microphysiometric analysis relative to (-)-noradrenaline; format: cell-based
Measured Intrinsic activity, listed per entry for reference.
A bare number is all that is needed in reply.

Ask: Give a short answer stating reported Intrinsic activity for Cc1ccccc1NCC1=NCCN1 .
Reply: 0.4

---

biological target: Alpha-2A adrenergic receptor (Homo sapiens, UniProt P08913); experiment: Agonist activity at human alpha2a-AR expressed in CHO cells assessed as rate of acidification after 240 mins by cytosensor microphysiometric analysis
Sequence (P08913 whole entry): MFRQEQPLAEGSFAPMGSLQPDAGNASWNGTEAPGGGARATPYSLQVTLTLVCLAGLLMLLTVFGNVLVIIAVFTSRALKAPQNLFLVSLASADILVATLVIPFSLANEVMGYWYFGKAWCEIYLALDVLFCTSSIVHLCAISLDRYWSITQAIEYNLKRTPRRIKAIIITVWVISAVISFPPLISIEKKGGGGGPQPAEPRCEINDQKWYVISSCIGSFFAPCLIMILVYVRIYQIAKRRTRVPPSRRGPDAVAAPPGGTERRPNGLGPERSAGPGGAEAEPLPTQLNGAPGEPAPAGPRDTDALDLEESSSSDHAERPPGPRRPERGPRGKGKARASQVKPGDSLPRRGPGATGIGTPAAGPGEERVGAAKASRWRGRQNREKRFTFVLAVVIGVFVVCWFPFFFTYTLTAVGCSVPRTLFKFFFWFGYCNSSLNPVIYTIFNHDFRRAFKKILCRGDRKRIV
reported.endpoint: pEC50
# pEC50: negative log10 of molar concentration; output just the value

Ask: Give a short answer stating reported pEC50 for c1ccc(-c2ccccc2NCC2=NCCN2)cc1 .
Reply: 7.20

---

test: Displacement of [3H]-2-BFI from I2 receptor imidazoline binding site in Sprague-Dawley rat brain membranes after 30 mins by liquid scintillation counting; format: cell membranes, Membrane
Rule: pKi of 8 or more gives 1.0; anything lower gives 0.0.

Ask: Quick check: does c1ccc(-c2ccccc2NCC2=NCCN2)cc1 have pKi greater than or equal to 8?
Reply: 0.0

---

target: Adrenergic receptor alpha-2 (Rattus norvegicus, UniProt P22086+P19328+P22909); test: Displacement of [3H]-RX 821002 from alpha2-AR in Sprague-Dawley rat brain membranes after 30 mins by liquid scintillation counting; format: cell membranes, Membrane
Measured pKi, listed per entry for reference.

Previously resolved entries follow.
[[record]]
smi = "C=CCc1ccccc1/C=C/C1=NCCN1"
result = "< 6"

[[record]]
smi = "Cc1ccccc1/C=C/C1=NCCN1"
result = "< 6"

[[record]]
smi = "Clc1ccccc1/C=C/C1=NCCN1"
result = "< 6"


Ask: Provide the reported pKi (system: Adrenergic receptor alpha-2 (Rattus norvegicus, UniProt P22086+P19328+P22909)) for C(=C\c1ccccc1-c1ccccc1)/C1=NCCN1
Reply: < 6

---

biological target: Alpha-2B adrenergic receptor (Homo sapiens); test: Agonist activity at human alpha2b-AR expressed in CHO cells assessed as rate of acidification after 240 mins by cytosensor microphysiometric analysis relative to (-)-noradrenaline; format: cell-based
reported.endpoint: Intrinsic activity
A bare number is all that is needed in reply.

[[record]]
smi = "CCCc1ccccc1NCC1=NCCN1"
reported_endpoint = "Intrinsic activity"
readout_number = 0.55

[[record]]
smi = "C=CCc1ccccc1NCC1=NCCN1"
reported_endpoint = "Intrinsic activity"
readout_number = 0.5

[[record]]
smi = "c1ccc(-c2ccccc2NCC2=NCCN2)cc1"
reported_endpoint = "Intrinsic activity"
readout_number = 0.5


Please look at the following compound next.
Ask: Provide the reported Intrinsic activity (system: Alpha-2B adrenergic receptor (Homo sapiens)) for Clc1ccccc1NCC1=NCCN1
Reply: 0.45

---

experiment: Displacement of [3H]-2-BFI from I2 receptor imidazoline binding site in Sprague-Dawley rat brain membranes after 30 mins by liquid scintillation counting; format: cell membranes, Membrane
Measured pKi, listed per entry for reference.
A bare number is all that is needed in reply.

[[record]]
smi = "C(=C\\c1ccccc1-c1ccccc1)/C1=NCCN1"
readout_number = 8.08

[[record]]
smi = "CCCc1ccccc1NCC1=NCCN1"
readout_number = 7.29

[[record]]
smi = "C=CCc1ccccc1/C=C/C1=NCCN1"
readout_number = 8.3

[[record]]
smi = "Cc1ccccc1/C=C/C1=NCCN1"
readout_number = 9.11

[[record]]
smi = "Cc1ccccc1NCC1=NCCN1"
readout_number = 8.06


Please look at the following molecule next.
Ask: Give a short answer stating reported pKi for C=CCc1ccccc1NCC1=NCCN1 .
Reply: 7.85
